- Tested on: SK-MEL-5 melanoma
- test-summary: NCI-60 one-dose screen, 48 h
- settings: 10 µM unless noted
Compounds without any hit were thinned out: in the full panel of roughly 83,000, 20% have a hit. Activity calls are given as the source filed them. How the source made its calls: active means growth percent below 10; inactive means the rest.
A correct response names exactly one class from yes (1) = active, no (0) = inactive

- Clc1cc(Cl)c2nc(-c3ccc(-c4ccc(/C=N/NC5=NCCN5)cc4)s3)cn2c1: no (0)
- CCOC(=O)c1cn2c3c(cc(C)cc3c1=O)C(=O)/C(=C/c1ccccc1)C2: no (0)
- COc1ccc2c(c1)[nH]c(=O)c1c3cc(OC)ccc3cn21: yes (1)
- O=[N+]([O-])c1ccc(Sc2ncccn2)c([N+](=O)[O-])c1: no (0)
- CN(C)c1ncnc2c1ccn2C1OC(CO)C(O)C1O (stereo not given): no (0)
- NC(=S)N/N=C(/CCN1CCCC1)CC(C1=C(O)C2=CCCCC2OC1=O)c1ccccc1 (stereo not given): no (0)
- COc1ccc(S(=O)(=O)n2ccc(-c3ccc4c(c3)CCC(C)(C)O4)n2)cc1OC: no (0)
- COc1ccc(C2CC(c3ccc(OC)cc3OC)=NN2c2ccc(S(N)(=O)=O)cc2)cc1 (stereo not given): no (0)
- COc1ccc(-c2ccc(C)n2-c2ccc(-c3nc4ccccc4s3)cc2)cc1: no (0)

Turning now to a further record.
QUERY: Please state the recorded outcome for this molecule: CC(C)(C)n1cc(-c2ccnc(NCCCNS(=O)(=O)c3ccc(F)cc3)c2)c(-c2cccc(O)c2)n1
RESULT: no (0)

====

- Test system: T-47D breast
- test-summary: NCI-60 one-dose screen, 48 h
- settings: 10 µM unless noted
Compounds without any hit were thinned out: in the full panel of roughly 83,000, 20% have a hit. Calls of active or inactive are those of the source. The calls were made as follows: active = growth percent below 10; inactive = the rest.
Lab note: assign the record to one of Y = active, N = inactive

As a guide, the following entries are already answered.
* CCCCN(CCCC)C(=O)CC | N
* O=C(NS(=O)(=O)c1ccc2ccccc2c1)n1cc(-c2ccncc2)c(-c2ccc(Cl)c(O)c2)n1 | N
* CC(=O)Oc1csc(N(C(C)=O)c2cc(C(=O)O)cc(C(=O)O)c2)n1 | N
* COc1ccccc1CNCCCN1C(=O)c2ccc3c4c(ccc(c24)C1=O)C(=O)N(CCCNCCCCNCCCN)C3=O | Y
* Oc1ccc(Cl)cc1-c1cc(-c2ccc(F)cc2)n[nH]1 | N
* C=C(C)[C@@H]1C[C@@H]2Cc3cc(Cl)ccc3N1O2 | N

QUERY: Hi, do you know how C/C(=C\c1ccc(OCC(=O)O)c(Cl)c1Cl)[N+](=O)[O-] came out in this test?
RESULT: N

QUERY: Field entry: c1ccc(-c2nc(N3CCNCC3)c3nc(-c4ccccc4)oc3n2)cc1
RESULT: Y

====

- Test system: HCT-116 colon
- test-summary: NCI-60 one-dose screen, 48 h (100 = growth as untreated, 0 = no growth, -100 = all killed)
- settings: 10 µM unless noted
This is part of a sample that, as a whole, favours compounds with a hit. Of some 83,000 tested, about 20% had one in any assay.
property-name: growth (%)
Express your answer in %, writing the number without its unit.

- NC(=S)N/N=C(/CCN1CCCC1)CC(C1=C(O)C2=CCCCC2OC1=O)c1ccccc1 (stereo unspecified): 9.46
- O=C1/C(=C/c2ccc(Cl)cc2)CN(C(=O)CCN2CCC(=NO)CC2)C/C1=C\c1ccc(Cl)cc1: -48
- O=C(NCCCNc1nccc(-n2ccc3cccnc32)n1)c1c(F)cccc1F: 101

QUERY: Which growth reading was recorded for the molecule Cc1cc(C(C)(C)C)ccc1S ?
RESULT: 103

QUERY: Also need Cc1ccc2nc(Cl)cc(=O)n2c1 , thanks.
RESULT: 105

====

Below, each of the compounds is paired with its reported growth value.
- Tested on: SK-MEL-2 melanoma
- test-summary: NCI-60 one-dose screen, 48 h (100 = growth as untreated, 0 = no growth, -100 = all killed)
- settings: 10 µM unless noted
The panel holds about 83,000 compounds, 20% with a hit somewhere; the sample as a whole holds those more often.
Field: numeric (%). Do not append units.

• Cc1ccc(-c2cc3nc(C(Cl)Cl)nc(-c4ccccc4C)n3n2)cc1 = 94.5
• COc1ccc(CN2CCc3c(Sc4ccccc4)nc(N)nc3C2=O)c(OC)c1 = 58.6

QUERY: Name the reported growth value associated with the compound COc1ccc(-c2c(N)n[nH]c2-c2cc(OC)c3c(c2)OCCO3)cc1
RESULT: 64.8

QUERY: Next entry: O=c1ccn(C2CC(O)C(O)C(CO)O2)c(=O)[nH]1 (stereo not given)
RESULT: 145

QUERY: CC(C)CSc1nc(NN)c(C#N)c(-c2ccccc2)n1 ?
RESULT: 101

QUERY: Moving on to N#Cc1c(-c2ccccc2)nc(SCC(=O)N2CCN(c3ccccc3)CC2)[nH]c1=O
RESULT: 113

====

- Test system: RXF 393 renal
- test-summary: NCI-60 one-dose screen, 48 h (100 = growth as untreated, 0 = no growth, -100 = all killed)
- settings: 10 µM unless noted
About 83,000 compounds went through this panel and 20% of them were active in at least one assay; those are over-represented in the sample as a whole.
Could you label it true (1) if measured growth is 70% or higher, and false (0) otherwise?

• COc1ccc(OC)c(C2OC(c3ccc4ccccc4c3O)=NN2C(C)=O)c1 (stereo unspecified) = false (0)
• COc1ccc(/C=C/c2c(C(C)=O)c(C)nc3ccccc23)cc1 = true (1)
• Cc1ccc2nc(-c3cc4c([nH]c5ccccc54)c(-c4ccc(F)c(F)c4)n3)[nH]c2c1 = true (1)
• Nc1nnc(-c2ccc3ccccc3c2O)o1 = true (1)
• Cc1ccc(-c2cc3nc(C(Cl)Cl)nc(-c4ccccc4C)n3n2)cc1 = false (0)

QUERY: Please check the record O=C1NN(C(=O)c2ccc(Cl)cc2)C(c2ccccc2)=N/C1=C\c1cn(-c2ccccc2)nc1-c1ccccc1 and state if its growth is at or above 70%.
RESULT: true (1)

QUERY: Let us now turn to O=C([O][Sn]([O]C(=O)c1ccccn1)([c]1ccccc1)[c]1ccccc1)c1ccccn1
RESULT: false (0)

QUERY: Try COc1ccc(C(=O)NC(=O)Nc2cc3c(cc2F)/C(=C/c2[nH]c(C)c(CCC(=O)O)c2C)C(=O)N3)c(F)c1 next.
RESULT: false (0)

QUERY: Item: O=S(=O)(CC(O)(c1ccccc1)c1ccccc1)CC(O)(c1ccccc1)c1ccccc1
RESULT: true (1)

QUERY: Can you handle O=C(NCCCNc1nccc(-n2ccc3cccnc32)n1)c1c(F)cccc1F next?
RESULT: true (1)

QUERY: What would you report for CCC(=O)Oc1ccc(/C(=C(/C)Cc2cccc(OC)c2)c2ccc(OCCN(C)C)cc2)cc1 ?
RESULT: true (1)

QUERY: Item: COc1cc(-c2nc(-c3nc4ccc(Cl)cc4[nH]3)cc3c2[nH]c2ccccc23)cc(OC)c1OC
RESULT: false (0)

QUERY: Let us now turn to N#Cc1c(-c2ccccc2)nc(SCC(=O)N2CCN(c3ccccc3)CC2)[nH]c1=O
RESULT: true (1)

QUERY: Please answer likewise for O=C1c2c(Cl)c(Cl)c(Cl)c(Cl)c2C(=O)C2(Cl)CC=CCC12Cl (stereo unspecified)
RESULT: false (0)

QUERY: Here is the next compound: O=[N+]([O-])c1ccc(/C=C/C2(CCl)OCCO2)cc1
RESULT: true (1)

QUERY: Same read-out for O=C(CSC1CCc2ccccc21)N/N=C/c1ccccc1O (stereo unspecified) ?
RESULT: true (1)

QUERY: Now consider Cc1ccc(S(=O)(=O)c2nc(-c3ccccc3)oc2S(C)(=O)=O)cc1 .
RESULT: false (0)

QUERY: Same thing, different compound: CN(C)CCOC(=O)Nc1ccccc1Cl
RESULT: true (1)

====

- Test system: SK-MEL-2 melanoma
- test-summary: NCI-60 one-dose screen, 48 h (100 = growth as untreated, 0 = no growth, -100 = all killed)
- settings: 10 µM unless noted
Compounds without any hit were thinned out: in the full panel of roughly 83,000, 20% have a hit.
Reported growth is given for each of the following molecules.
Numbers only; they are read as %.

These solved cases illustrate the format of a correct answer.
• COc1ccc(C2NN=C3c4ccccc4CCC32)cc1 (stereo not given) = 78.1
• COc1cc(-c2nc(-c3nc4ccc(Cl)cc4[nH]3)cc3c2[nH]c2ccccc23)cc(OC)c1OC = 62
• COc1cc(C2CC(c3ccc4c(c3)OCO4)=NN2C(C)=O)cc(OC)c1OC (stereo not given) = 28.5
• O=C(/C=C/c1c[nH]c2ccccc12)c1ccc(O)c(CN2CCN(c3ccc(F)cc3)CC2)c1 = 105
• CCN(CC)CCC(CNc1ccnc2cc(Cl)ccc12)c1ccccc1 (stereo not given) = 56.2

# context switch: different molecule, same growth
QUERY: I'd like to know its growth. The molecule in question is CC(C)(C)n1cc(-c2ccnc(NCCCNS(=O)(=O)c3ccccc3)c2)c(-c2cccc(O)c2)n1
RESULT: 60.1
